Test system: Escherichia coli TOP10
Assay: shrunken log2 fold change of peptide-encoding DNA abundance (4.5 h post-induction vs induction); higher = less antimicrobial activity (less host growth inhibition)
Conditions: time post-induction: 4.5 h; library: site-saturation at positions 5, 18, 19, 20
quantity: shrunken log2 fold change

ordered residues	system	test value
RRIRARPPRLPRPRPRPRMFPRP	Escherichia coli TOP10	0.345
RRIRGRPPRLPRPRPRPIDTPRP	Escherichia coli TOP10	0.306
RRIRERPPRLPRPRPRPCKLPRP	Escherichia coli TOP10	-0.187
RRIRDRPPRLPRPRPRPPITPRP	Escherichia coli TOP10	-0.217
RRIRHRPPRLPRPRPRPCIKPRP	Escherichia coli TOP10	-0.721
RRIRQRPPRLPRPRPRPHIFPRP	Escherichia coli TOP10	0.0297
RRIRQRPPRLPRPRPRPQQMPRP	Escherichia coli TOP10	0.156
RRIRYRPPRLPRPRPRPGGEPRP	Escherichia coli TOP10	0.173
RRIRWRPPRLPRPRPRPAMEPRP	Escherichia coli TOP10	0.348
RRIRSRPPRLPRPRPRPYFWPRP	Escherichia coli TOP10	-0.538
RRIRLRPPRLPRPRPRPVGHPRP	Escherichia coli TOP10	0.306
RRIRWRPPRLPRPRPRPTYLPRP	Escherichia coli TOP10	0.0592
RRIRCRPPRLPRPRPRPLQPPRP	Escherichia coli TOP10	-0.0133
RRIRSRPPRLPRPRPRPRFEPRP	Escherichia coli TOP10	0.402
RRIRRRPPRLPRPRPRPMYEPRP	Escherichia coli TOP10	-0.034

###

Test system: Escherichia coli TOP10;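 further: peptides expressed intracellularly from a pBAD plasmid library in pooled LB shake-flask culture, induced with 0.3% L-arabinose, DNA abundance read by NGS, three biological replicates, DESeq2 with apeglm shrinkage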
Assay: shrunken log2 fold change of peptide-encoding DNA abundance (4.5 h post-induction vs induction); higher = less antimicrobial activity (less host growth inhibition)
Details: time post-induction: 4.5 h; library: site-saturation at positions 5, 18, 19, 20
Recorded shrunken log2 fold change determines the label; the label ranges are lo: < -0.1; mid: ≥ -0.1 and < 0.03; hi: ≥ 0.03

ordered residues	label
RRIRFRPPRLPRPRPRPGGWPRP	hi
RRIRIRPPRLPRPRPRPPQFPRP	lo
RRIRERPPRLPRPRPRPMTNPRP	lo
RRIRNRPPRLPRPRPRPNAFPRP	lo
RRIRYRPPRLPRPRPRPLIVPRP	lo
RRIRKRPPRLPRPRPRPELSPRP	mid
RRIRIRPPRLPRPRPRPYDRPRP	lo
RRIRLRPPRLPRPRPRPMFTPRP	mid
RRIRFRPPRLPRPRPRPGHHPRP	lo
RRIRRRPPRLPRPRPRPWPPPRP	hi
RRIRFRPPRLPRPRPRPWSPPRP	lo
RRIRWRPPRLPRPRPRPYRRPRP	mid
RRIRVRPPRLPRPRPRPQIVPRP	lo
RRIRYRPPRLPRPRPRPVDNPRP	mid
RRIRERPPRLPRPRPRPWWIPRP	mid
RRIRVRPPRLPRPRPRPIHNPRP	lo
RRIRKRPPRLPRPRPRPQRGPRP	mid
RRIRMRPPRLPRPRPRPFNKPRP	lo
RRIRTRPPRLPRPRPRPVFQPRP	mid
RRIRHRPPRLPRPRPRPEEWPRP	hi
RRIRARPPRLPRPRPRPRENPRP	hi
RRIRYRPPRLPRPRPRPHPEPRP	hi
RRIRWRPPRLPRPRPRPLDIPRP	hi
RRIRDRPPRLPRPRPRPHNSPRP	mid
RRIRFRPPRLPRPRPRPTQRPRP	hi
RRIRGRPPRLPRPRPRPGHFPRP	mid
RRIRNRPPRLPRPRPRPGTKPRP	hi
RRIRDRPPRLPRPRPRPTLKPRP	mid
RRIRNRPPRLPRPRPRPEVTPRP	mid
RRIRIRPPRLPRPRPRPCKYPRP	lo
RRIRKRPPRLPRPRPRPPQEPRP	hi

Origin of measurements: the supplement of paper PMC9112550
